Biological target: CXCR4 (Homo sapiens, UniProt P61073)
Sequence (P61073 whole entry): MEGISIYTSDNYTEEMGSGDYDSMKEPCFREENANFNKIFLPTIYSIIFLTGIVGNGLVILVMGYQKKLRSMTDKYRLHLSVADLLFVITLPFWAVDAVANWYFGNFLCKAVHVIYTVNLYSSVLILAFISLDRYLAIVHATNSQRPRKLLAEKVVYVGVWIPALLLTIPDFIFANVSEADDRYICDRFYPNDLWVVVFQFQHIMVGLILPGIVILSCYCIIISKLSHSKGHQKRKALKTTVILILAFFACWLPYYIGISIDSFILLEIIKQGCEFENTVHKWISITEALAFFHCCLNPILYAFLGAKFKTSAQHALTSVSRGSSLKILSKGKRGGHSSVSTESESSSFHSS
Assay: [125I]-CXCL12 competition binding on membranes from HEK293T cells transiently expressing CXCR4
Settings: screening of Nanobody clone pools; membranes from HEK293T cells transiently expressing CXCR4
property_label: Binding (binding efficiency, competition binding with [125I]-CXCL12)

molecule="237A6: Nanobody (VHH) raised against human CXCR4, SEQ ID NO: 248 (protein, Nanobody, Nanobody constructs or fragments thereof) VHH: EVQLVESGGGLVQAGGSLRLSCAASGSIFSLNAMGWYRQAPGKQRELVAGITSSTSTYYADSVKGRFTISRDNTKNTVYLQMNSLKPEDTAVYYCNVDCPDYYSDYECPLEDRGQGTQVTVSS" result="+ (+ = 30-69%)"
molecule="237G7: Nanobody (VHH) raised against human CXCR4, SEQ ID NO: 251 (protein, Nanobody, Nanobody constructs or fragments thereof) VHH: EVQLVESGGGLVQPGGSLRLSCAASSFIGNYHAIVWLRQAPGKELEGVSCITSRDSITYYASFVKGRFTISRDDAKNTVYLQMNNLKPEDTAVYYCAVBTSMTCPTLIVRFNYRGQGTQVTVSS" result="+ (+ = 30-69%)"
molecule="238D2: Nanobody (VHH) raised against human CXCR4, SEQ ID NO: 238 (protein, Nanobody, Nanobody constructs or fragments thereof) VHH: EVQLVESGGGLVQTGGSLRLSCAASGFTFSSYAMSWVRQAPGKGLEWVSGIKSSGDSTRYAGSVKGRFTISRDNAKNMLYLQMYSLKPEDTAVYYCAKSRVSRTGLYTYDNRGQGTQVTVSS" result="++ (++ = 70-100%)"
molecule="238D4: Nanobody (VHH) raised against human CXCR4, SEQ ID NO: 239 (protein, Nanobody, Nanobody constructs or fragments thereof) VHH: EVQLMESGGGLVQAGGSLRLSCAASGRTFNNYAMGWFRRAPGKEREFVAAITRSGVRSGVSAIYGDSVKDRFTISRDNAKNTLYLQMNSLKPEDTAVYTCAASAIGSGALRRFEYDYSGQGTQVTVSS" result="++ (++ = 70-100%)"

Reported Binding (binding efficiency, competition binding with [125I]-CXCL12) ( 237D1: Nanobody (VHH) raised against human CXCR4, SEQ ID NO: 249 (protein, Nanobody, Nanobody constructs or fragments thereof) VHH: EVQLVESGGGLAQPGGPLRLTCEASGVIYSVNDMGWYRQAPGKQRELVAVITSGGGTNYVDSVKGRFTISGDNRKKTVYLQMNSLKPEDTAVYYCSIYYSSGISTLRSWGQGTQVTVSS ) = + (+ = 30-69%)

Reported Binding (binding efficiency, competition binding with [125I]-CXCL12) ( 238C5: Nanobody (VHH) raised against human CXCR4, SEQ ID NO: 243 (protein, Nanobody, Nanobody constructs or fragments thereof) VHH: EVQLMESGGGLVQAGGSLRLACAASGFTFEDYAIGWFRKAPGKEREGVSCISGSDGSTTYADSVKGRFTISTDNAKNTVYLEMNSLKPEDTAVYYCAQQYGVGGRVVCPGPYEYDVWGQGTQVTVSS ) = + (+ = 30-69%)

Recorded values, source patent US9212226B2.
